# PROTOCOL_TEXT: Rat PK
# Format: in vivo
# MEASUREMENT_CONDITIONS: rat, in vivo; PO, 3 mg/kg, male Han Wistar rats, n = 3
Overview of recorded Tmax for various compounds
ENDPOINT_NAME: Tmax (h)

1. O=C(NC1CC2(CCC(c3ccnc4ccccc34)CC2)C1)c1ccc(Cl)s1 (centres unmarked) : 3
2. O=C(Nc1ccc(Cl)cc1)[C@@H]1C[C@]12CC[C@H](c1ccnc3ccccc31)CC2 (relative stereo) : 1
